Study System: mouse TRPM3α2 (mTRPM3) ion channel (Mus musculus (Mouse))
Sequence (J9SQF3 other isoform, or with tags, fused parts or gaps): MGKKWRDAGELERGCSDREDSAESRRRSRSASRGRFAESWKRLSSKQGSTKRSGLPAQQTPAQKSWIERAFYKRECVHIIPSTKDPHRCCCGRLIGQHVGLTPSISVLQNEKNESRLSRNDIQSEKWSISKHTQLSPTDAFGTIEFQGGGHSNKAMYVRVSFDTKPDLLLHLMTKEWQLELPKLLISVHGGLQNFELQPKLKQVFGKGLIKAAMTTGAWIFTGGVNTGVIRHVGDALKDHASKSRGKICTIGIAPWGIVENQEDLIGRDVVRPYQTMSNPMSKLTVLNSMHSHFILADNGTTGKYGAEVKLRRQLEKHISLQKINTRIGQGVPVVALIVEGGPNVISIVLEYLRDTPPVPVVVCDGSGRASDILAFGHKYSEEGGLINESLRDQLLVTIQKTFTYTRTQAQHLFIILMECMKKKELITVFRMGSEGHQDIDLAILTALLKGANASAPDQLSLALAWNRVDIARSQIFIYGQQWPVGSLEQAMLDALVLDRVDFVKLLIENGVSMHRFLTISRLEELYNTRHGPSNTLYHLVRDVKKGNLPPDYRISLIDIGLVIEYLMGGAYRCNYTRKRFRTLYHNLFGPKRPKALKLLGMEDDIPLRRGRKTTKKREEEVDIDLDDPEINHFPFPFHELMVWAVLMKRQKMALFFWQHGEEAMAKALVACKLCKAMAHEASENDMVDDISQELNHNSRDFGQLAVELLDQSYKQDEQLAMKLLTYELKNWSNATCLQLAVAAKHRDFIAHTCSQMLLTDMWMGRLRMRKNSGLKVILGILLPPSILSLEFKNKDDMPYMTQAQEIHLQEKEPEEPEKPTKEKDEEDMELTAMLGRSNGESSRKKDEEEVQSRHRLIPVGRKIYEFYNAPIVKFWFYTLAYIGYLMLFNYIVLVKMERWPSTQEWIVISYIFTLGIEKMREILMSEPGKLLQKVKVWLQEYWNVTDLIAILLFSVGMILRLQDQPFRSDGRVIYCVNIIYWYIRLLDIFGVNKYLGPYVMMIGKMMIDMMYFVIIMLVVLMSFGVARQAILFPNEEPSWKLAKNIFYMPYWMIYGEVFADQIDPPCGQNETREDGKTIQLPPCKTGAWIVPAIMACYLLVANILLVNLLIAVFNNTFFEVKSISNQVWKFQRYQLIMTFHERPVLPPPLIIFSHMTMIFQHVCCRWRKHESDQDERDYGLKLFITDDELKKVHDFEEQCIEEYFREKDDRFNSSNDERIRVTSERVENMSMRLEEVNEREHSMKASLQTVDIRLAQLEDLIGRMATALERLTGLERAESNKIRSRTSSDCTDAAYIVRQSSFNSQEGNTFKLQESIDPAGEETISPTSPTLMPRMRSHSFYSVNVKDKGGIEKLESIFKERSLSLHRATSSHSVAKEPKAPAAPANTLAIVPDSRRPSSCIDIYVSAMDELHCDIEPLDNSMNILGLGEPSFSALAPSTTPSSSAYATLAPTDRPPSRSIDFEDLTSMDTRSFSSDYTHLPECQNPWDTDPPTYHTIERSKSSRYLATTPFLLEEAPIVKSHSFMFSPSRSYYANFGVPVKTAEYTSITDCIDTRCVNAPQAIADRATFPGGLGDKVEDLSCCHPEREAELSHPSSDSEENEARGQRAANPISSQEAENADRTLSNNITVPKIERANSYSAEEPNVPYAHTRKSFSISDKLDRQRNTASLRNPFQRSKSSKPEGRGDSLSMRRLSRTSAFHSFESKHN
Measurement Notes: TRPM3 ion channel driven Ca2+ uptake, Fluo-4 AM assay, mTRPM3alpha2 overexpressing flip-in HEK293 cells stimulated with pregnenolone sulfate
Format: cell-based
Applied Conditions: PS (50 μM) stimulated, cpds. 608-666
# IC50 annotations

Below, 2 molecules whose answers are already recorded.
// query Name the recorded IC50 for Cc1oc2ccc(OCc3ccccn3)cc2c1C(=O)NC1COCC1(F)F (single isomer, unassigned) .
// result < 1 µM

// query Name the recorded IC50 for Cc1oc2ccc(OCc3c[nH]nc3C(F)(F)F)cc2c1C(=O)NC1(CO)CCOCC1 .
// result < 1 µM

Now take the following molecule into account.
// query Name the recorded IC50 for Cc1oc2ccc(OCc3ccnn3C)cc2c1C(=O)NC1CNCC1(F)F (single isomer, unassigned) .
// result < 1 µM

----------
Study System: mouse TRPM3α2 (mTRPM3) ion channel (Mus musculus (Mouse))
Measurement Notes: TRPM3 ion channel driven Ca2+ uptake, Fluo-4 AM assay, mTRPM3alpha2 overexpressing flip-in HEK293 cells stimulated with pregnenolone sulfate
Type: cell-based
Applied Conditions: PS 50 μM, cpds 300-399
Quantity Measured: IC50

// query Name the recorded IC50 for CNC(=O)CNC(=O)c1c(C)oc2ccc(OCc3scnc3C)cc12 [compound 321] .
// result < 1 µM

// query Name the recorded IC50 for Cc1ncsc1COc1ccc2oc(C)c(C(=O)NCC3(C#N)CC3)c2c1 [compound 371] .
// result < 1 µM

Others:
// query Name the recorded IC50 for Cc1oc2ccc(OCc3cccnc3N)cc2c1C(=O)NC1(CO)CCOCC1 [compound 346] .
// result < 1 µM

// query Name the recorded IC50 for Cc1ncsc1COc1cc2c(C(=O)NC3(CO)COC3)c(C)oc2cc1F [compound 362] .
// result < 1 µM

// query Name the recorded IC50 for Cc1ncsc1COc1ccc2oc(C)c(C(=O)NCCNS(C)(=O)=O)c2c1 [compound 322] .
// result < 1 µM

----------
# IC50 annotations
Study System: UniProtKB J9SQF3
Measurement Notes: TRPM3 ion channel driven Ca2+ uptake, Fluo-4 AM assay, mTRPM3alpha2 overexpressing flip-in HEK293 cells stimulated with pregnenolone sulfate
Format: cell-based
Applied Conditions: PS (50 μM) stimulated, cpds. 500-599

Below, 5 compounds whose answers are already recorded.
// query Any idea what IC50 came out for Cc1oc2ccc(OCc3ccnn3C)cc2c1C(=O)NC1(C(N)=O)COC1 on UniProtKB J9SQF3?
// result < 1000 nM

// query Any idea what IC50 came out for Cc1ncsc1COc1ccc2oc(C(F)F)c(C(=O)NC3(C(N)=O)COC3)c2c1 on UniProtKB J9SQF3?
// result < 1000 nM

// query Any idea what IC50 came out for Cc1nccc(COc2ccc3oc(C)c(C(=O)NC4CCNCC4(F)F)c3c2)n1 (single isomer, unassigned) [cpd 548-En 1] on UniProtKB J9SQF3?
// result 1000 to 20000 nM

// query Any idea what IC50 came out for Cc1coc(COc2ccc3oc(C)c(C(=O)NC4CCNCC4(F)F)c3c2)n1 (single isomer, unassigned) [cpd 551-En 2] on UniProtKB J9SQF3?
// result 1000 to 20000 nM

// query Any idea what IC50 came out for Cc1ncc(COc2ccc3oc(C)c(C(=O)NCC(C)(C)F)c3c2)s1 on UniProtKB J9SQF3?
// result < 1000 nM

Others:
// query Any idea what IC50 came out for Cc1oc2ccc(OCc3ncccn3)cc2c1C(=O)NC1CCNCC1(F)F (single isomer, unassigned) [cpd 559-En 2] on UniProtKB J9SQF3?
// result > 20000 nM

// query Any idea what IC50 came out for Cc1csc(COc2ccc3oc(C)c(C(=O)NC4CCNCC4(F)F)c3c2)n1 (single isomer, unassigned) [cpd 552-En 1] on UniProtKB J9SQF3?
// result < 1000 nM
